Where do these numbers come from? They come from the supplement of paper PMC11208160.

Below is a list of entries, each paired with its recorded recombinant barcode read abundance (log10) value.
Assay: recombinant barcode read abundance after kanamycin selection (control-corrected) (log10(CPM+1)); higher = more efficient recombination; sequences stand for … in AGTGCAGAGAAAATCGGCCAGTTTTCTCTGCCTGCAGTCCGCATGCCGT…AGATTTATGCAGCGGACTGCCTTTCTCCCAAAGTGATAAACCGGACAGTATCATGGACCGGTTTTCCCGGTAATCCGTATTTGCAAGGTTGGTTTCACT; site = the 11-nt target;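 note: IS621 recombinase and bridge RNA in Escherichia coli cells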
Just the number.

TAACGTACTTGGGTTCTAACCTGTTGCTT (site TAATGTACTAA) :: 0.0185

Field recombinant barcode read abundance (log10) (entry CTAATATCTTGGGTTCTAACCTGTTGCAT (site AATGGTCCTTG) ) reads 0.105

GTGATCCCTTGGGTTCTAACCTGTTGCCT (site GTGATCCCTAG) yielded recombinant barcode read abundance (log10) of 1.18

// recombinant barcode read abundance (log10) lookup, sequence = AGCATCCCTTGGGTTCTAACCTGTTGCTG (site AGCATCCCTCA) , result: 1.47
